- assay.summary: Kinetic solubility at pH 1 and 7
- Assay type: physicochemical
- condition.parameters: 23 °C, simulated gastric fluid, kinetic from dmso stock; pH 1, 24-hour incubation at ambient temperature, 1.0% DMSO; read-out: Kinetic Solubility pH 1
Listed here: items and their measured solubility kinetic at 24 h.
Report the value in µM with no unit label.

A selection of reference data follows.
| molecule | measurement.unit | reported.value |
| --- | --- | --- |
| CC1(C)CN(c2cc(-c3c[nH]c(=O)[nH]c3=O)nn3ccnc23)CC1(F)F [B, reference compound] | µM | 95 |
| O=c1c(-c2cc([C@H]3C[C@@H]3c3ccc4cnn(CC(F)(F)F)c4c3)n3nccc3n2)cn(COP(=O)(O)O)c(=O)n1COP(=O)(O)O | µM | 89 |

Query molecule follows.
[ask] Recorded solubility kinetic at 24 h for O=c1[nH]c(=O)n(COP(=O)(O)O)cc1-c1cc([C@H]2C[C@@H]2c2ccc3cnn(CC(F)(F)F)c3n2)c2ncc(F)n2n1 , please?
[reply] 79
